Tested on: NCI-H522 lung
Test: NCI tumour cell line growth inhibition, 48 h
The reader will find reported TGI values listed item by item below.
outcome.measure: TGI

| compound | tested.system | outcome.measure | endpoint.value |
| --- | --- | --- | --- |
| CC(=O)O[C@H]1C(=O)[C@@]2(C)[C@H]([C@H](OC(=O)c3ccccc3)[C@]3(O)C[C@H](OC(=O)[C@H](OC(=O)OC[C@@H]4COC(C)(C)O4)[C@@H](NC(=O)c4ccccc4)c4ccccc4)C(C)=C1C3(C)C)[C@]1(OC(C)=O)CO[C@@H]1C[C@@H]2O | NCI-H522 lung | TGI | > 33.3 µM |
| Cn1cc(C2=C(c3cn(C)c4ccc(OCc5ccccc5)cc34)C(=O)NC2=O)c2ccccc21 | NCI-H522 lung | TGI | > 25 µM |
| CC(C1CCCC1=O)C1CCCC1=O (stereo not given) | NCI-H522 lung | TGI | > 100 µM |
| COc1ccc2c3c([nH]c2c1CC=C(C)C)C(=O)C=C(C)C3=O | NCI-H522 lung | TGI | > 25 µM |
| CC(=O)Nc1ccc(C2C(C(=O)Nc3ccccc3C)=C(C)NC(C)=C2C(=O)Nc2ccccc2C)cc1 | NCI-H522 lung | TGI | > 100 µM |
| O=C(CCc1ccc(O)cc1)NCCc1cccc(O)c1 | NCI-H522 lung | TGI | > 50 µM |
| CC(=O)c1ccc(NC(=O)/C(CC(=O)/C=C/c2ccccc2)=N/NC(N)=S)cc1 | NCI-H522 lung | TGI | > 100 µM |
| CC1c2ccccc2Cn2cc3c(c21)C(=O)c1cccc(OP(=O)(O)OCc2ccccc2)c1C3=O (stereo not given) | NCI-H522 lung | TGI | > 100 µM |
| Clc1ccc(-c2noc(CN3CCCCC3)n2)cc1 | NCI-H522 lung | TGI | > 100 µM |
| O=c1nc2n(c3nsnc13)CCO2 | NCI-H522 lung | TGI | > 100 µM |
